# measurement_description: protein stability index of a GFP-peptide fusion (yeast GPS) (PSI 1-4); higher = more stable; sorted into four equal gates, so the index is relative within each strain
# experimental_conditions: doa10∆
readout_label: protein stability index

[[record]]
primary_sequence = "KSLDEQLLLLSDERAKL [LRP1]"
recorded_measurement = 2.73

[[record]]
primary_sequence = "MNVTPLDELQWKSPEWI [MED6]"
recorded_measurement = 3.1

[[record]]
primary_sequence = "KIALGSPIVNVLEDVYR [RRI2]"
recorded_measurement = 2.17

[[record]]
primary_sequence = "QQVVCIFSYGPHIQKML [POP6]"
recorded_measurement = 1.66

[[record]]
primary_sequence = "YIFCISRTIGMVVNGPI [SCL1]"
recorded_measurement = 1.45

[[record]]
primary_sequence = "LNHILEKSTQLQQKHEL [YGR119C/NUP57]"
recorded_measurement = 2.52

[[record]]
primary_sequence = "PAKVEDVQKSSDSSSED [YLR335W/NUP2]"
recorded_measurement = 2.84

[[record]]
primary_sequence = "LSIAFENGDYAACEKLL [RPN12]"
recorded_measurement = 3.13

[[record]]
primary_sequence = "LSEDELRELDVELIESK [SMC4]"
recorded_measurement = 3.33

[[record]]
primary_sequence = "MTQRAIQSAESIKSQKE [SWI3]"
recorded_measurement = 2.27

[[record]]
primary_sequence = "DQFITSLKCTDPYELKG [ITC1]"
recorded_measurement = 3.02

[[record]]
primary_sequence = "SLMDTLITPAVRNTAPN [YCG1]"
recorded_measurement = 1.6

[[record]]
primary_sequence = "TTTTANINEVKKASDLV [NUT1]"
recorded_measurement = 3.01

[[record]]
primary_sequence = "AIPLQQVLSQSADPSLL [SWI1]"
recorded_measurement = 2.86

[[record]]
primary_sequence = "SKVSKQQAKGAFQKVAA [RPL24B]"
recorded_measurement = 2.45


---

# measurement_description: protein stability index of a GFP-peptide fusion (yeast GPS) (PSI 1-4); higher = more stable; sorted into four equal gates, so the index is relative within each strain
# experimental_conditions: ubr1∆
readout_label: protein stability index

[[record]]
primary_sequence = "LLSENRSEKSTTNAQTK [SRP54]"
recorded_measurement = 2.92

[[record]]
primary_sequence = "DKDAFIPKLKPAPINSL [SNU114]"
recorded_measurement = 2.84

[[record]]
primary_sequence = "TNKGPLAQIWLASNMSN [MCD1]"
recorded_measurement = 1.17

[[record]]
primary_sequence = "VYDIMALEDEERDEILT [BRR2]"
recorded_measurement = 3.39

[[record]]
primary_sequence = "STAAAPIAAPKKPRKPR [PGD1]"
recorded_measurement = 3.15

[[record]]
primary_sequence = "KNAVVRSKFGGDFLDFQ [ARP7]"
recorded_measurement = 3.21

[[record]]
primary_sequence = "EIDTILSTLRMEADPSL [RPN9]"
recorded_measurement = 2.67

[[record]]
primary_sequence = "LNLQFKAKVDDLVLGKP [YLR335W/NUP2]"
recorded_measurement = 3.3

[[record]]
primary_sequence = "DTSYKIDGKTVSYKDYS [SMC1]"
recorded_measurement = 2.95

[[record]]
primary_sequence = "MNVTPLDELQWKSPEWI [MED6]"
recorded_measurement = 3.37

[[record]]
primary_sequence = "VATNIVNEDPIFHPMIH [YML103C/NUP188]"
recorded_measurement = 2.58

[[record]]
primary_sequence = "QPHIFNNPKVKTSKRTK [RPS11A]"
recorded_measurement = 2.36

[[record]]
primary_sequence = "GRMDMTRLYDYEIRDID [SSN2]"
recorded_measurement = 3.36

[[record]]
primary_sequence = "NLEFDSTNHPDYDVSKK [SRP14]"
recorded_measurement = 3.15

[[record]]
primary_sequence = "IGISIVGRFSTISSADF [ECM29]"
recorded_measurement = 2.26

[[record]]
primary_sequence = "KQINHQGEEEELIALNL [RPB4]"
recorded_measurement = 3.42

[[record]]
primary_sequence = "LNLDSEQTVEYMVSRAI [RPN3]"
recorded_measurement = 2.83

[[record]]
primary_sequence = "NQQQQNQQPQQQQQQQQ [SWI1]"
recorded_measurement = 2.83

[[record]]
primary_sequence = "YQLNDRNVTKGDIVRML [SMC3]"
recorded_measurement = 3.02

[[record]]
primary_sequence = "NTTTYKSRPDRPKPVSP [SNF5]"
recorded_measurement = 2.97

[[record]]
primary_sequence = "SKDVSRLLSALGPRGVS [SRP21]"
recorded_measurement = 2.83

[[record]]
primary_sequence = "ILYEIRALYTPFLLMEL [YDL116W/NUP84]"
recorded_measurement = 3.02

[[record]]
primary_sequence = "FAISMGYLFKVSALDKC [ECM29]"
recorded_measurement = 2.13

[[record]]
primary_sequence = "NVYRVTVHKTFEGNVAT [PRP8]"
recorded_measurement = 3.33

[[record]]
primary_sequence = "DTVNSALENDVATNIVN [YML103C/NUP188]"
recorded_measurement = 3.19

[[record]]
primary_sequence = "DNLLEMSDHSLDKLNCA [RRP6]"
recorded_measurement = 3.25

[[record]]
primary_sequence = "KSAENIIKMTIPYAAKL [RET1]"
recorded_measurement = 2.32

[[record]]
primary_sequence = "AIPSRMTVAHLIECLLS [RPB2]"
recorded_measurement = 1.67

[[record]]
primary_sequence = "IEKVDRENMICKIDFQK [RRI2]"
recorded_measurement = 3.15

[[record]]
primary_sequence = "LGQLYVTMGAKDKLREF [RPN6]"
recorded_measurement = 3.12

[[record]]
primary_sequence = "ISLVDDIINAVNEIMYK [MTW1]"
recorded_measurement = 3.1

[[record]]
primary_sequence = "VKLMKNITDYETHPDNS [BRR2]"
recorded_measurement = 2.09

[[record]]
primary_sequence = "QKGITSYAVSPYAQKPL [QCR8]"
recorded_measurement = 3.13

[[record]]
primary_sequence = "KRDAKAAGSYYVEAQHK [RPL7A]"
recorded_measurement = 2.91

[[record]]
primary_sequence = "YDNIDIQRGRILPTDGS [RPB7]"
recorded_measurement = 2.94

[[record]]
primary_sequence = "DKNSGVKSEVDVQVDAE [ITC1]"
recorded_measurement = 2.97

[[record]]
primary_sequence = "VAGGVAGGEAGEAEAEK [RPP1A]"
recorded_measurement = 3.45

[[record]]
primary_sequence = "KKWKKYWQYKAGIPIGL [SWP82]"
recorded_measurement = 2.01

[[record]]
primary_sequence = "AARKAEKAKSAGVQGSK [RPL24B]"
recorded_measurement = 3.29

[[record]]
primary_sequence = "NDSKEESTTEATGNESQ [YLR335W/NUP2]"
recorded_measurement = 3.35

[[record]]
primary_sequence = "IAIIKDTSDIIVDPTAE [RRP46]"
recorded_measurement = 1.61

[[record]]
primary_sequence = "ATESIKNRRRIHGELKT [SMC1]"
recorded_measurement = 2.61

[[record]]
primary_sequence = "GGAYTVSTAAAATVRST [RPL43A]"
recorded_measurement = 2.14

[[record]]
primary_sequence = "QVEYALESISHAGTAIG [PRE9]"
recorded_measurement = 2.52

[[record]]
primary_sequence = "ILGIAGEDFAVLAGDTR [PRE7]"
recorded_measurement = 3.64

[[record]]
primary_sequence = "SLDLIKERRSLKPEVRK [RPL24A]"
recorded_measurement = 3.32

[[record]]
primary_sequence = "VLTQLTALALKYLIKYN [CSI1]"
recorded_measurement = 2.47

[[record]]
primary_sequence = "ICEDPETAKKITFHPKI [SMC2]"
recorded_measurement = 2.9


---

protein stability index: recorded values
# measurement_description: protein stability index of a GFP-peptide fusion (yeast GPS) (PSI 1-4); higher = more stable; sorted into four equal gates, so the index is relative within each strain
# experimental_conditions: ubr1∆
readout_label: protein stability index

[[record]]
primary_sequence = "PEIPLVVSTDLESIQKT [RPL4A]"
recorded_measurement = 2.81

[[record]]
primary_sequence = "RNADELSSYQKKIIKCD [PRE5]"
recorded_measurement = 1.65

[[record]]
primary_sequence = "ELFDILSTSEDVSIEEL [IRR1]"
recorded_measurement = 2

[[record]]
primary_sequence = "LRELDVELIESKINELS [SMC4]"
recorded_measurement = 3.35

[[record]]
primary_sequence = "KTKAMSLSIEENIPVAL [POP1]"
recorded_measurement = 3.17

[[record]]
primary_sequence = "KYNAFIASEVLIKQVPR [RPL1A]"
recorded_measurement = 1.66

[[record]]
primary_sequence = "EIDPLTGMPISNDPDVN [BRN1]"
recorded_measurement = 3.03

[[record]]
primary_sequence = "QMIQQRHQQLLRSRLQQ [SNF5]"
recorded_measurement = 3.02

[[record]]
primary_sequence = "KKSKKKWSKKSMKDRAQ [RPS25A]"
recorded_measurement = 3.6

[[record]]
primary_sequence = "DCLDKLLNDECTESTRE [SNF2]"
recorded_measurement = 3.41

[[record]]
primary_sequence = "ETHSKKRKKEANEEPNT [ITC1]"
recorded_measurement = 2.17

[[record]]
primary_sequence = "KTVDSSIQPIESNIKMT [SSN2]"
recorded_measurement = 2.74

[[record]]
primary_sequence = "ETTIDDLPISSTDNEAI [SMC1]"
recorded_measurement = 2.97

[[record]]
primary_sequence = "TQKRLAASVVGVGKRKV [RPL19A]"
recorded_measurement = 1.79

[[record]]
primary_sequence = "NEEATPIPSSETKADGI [RRP6]"
recorded_measurement = 3.01

[[record]]
primary_sequence = "MFFIKDLSLNITLHPSF [RPB7]"
recorded_measurement = 2.24

[[record]]
primary_sequence = "YQKKQYKDSLALINDLL [RPN6]"
recorded_measurement = 2.86

[[record]]
primary_sequence = "RKPILLPDPKPLPLDLN [ITC1]"
recorded_measurement = 2.14

[[record]]
primary_sequence = "KSLDEQLLLLSDERAKL [LRP1]"
recorded_measurement = 2.91

[[record]]
primary_sequence = "YDSRGVGEMKLLKKKDD [YLR335W/NUP2]"
recorded_measurement = 2.6

[[record]]
primary_sequence = "GVLLRDAHGVTQARVIT [RPS13]"
recorded_measurement = 2.27

[[record]]
primary_sequence = "LSQSRIKIKSLEYEISK [YIL149C/MLP2]"
recorded_measurement = 2.07

[[record]]
primary_sequence = "LHLANEHGLQITHTENY [BRN1]"
recorded_measurement = 2.76

[[record]]
primary_sequence = "RESRIVSTEGNVPQTLA [RPL21A]"
recorded_measurement = 2.3

[[record]]
primary_sequence = "LLWTPKKLEITSDGALS [RPR2]"
recorded_measurement = 2.4

[[record]]
primary_sequence = "AICRYANVIKALAFCEI [RRP4]"
recorded_measurement = 2.22

[[record]]
primary_sequence = "TATYNDNMSEEQWLRQF [SNF2]"
recorded_measurement = 3.5

[[record]]
primary_sequence = "NDFANNLPKEGDIVLTR [CSL4]"
recorded_measurement = 2.97

[[record]]
primary_sequence = "IVTGNLVLDLLTWLSSF [IRR1]"
recorded_measurement = 2.29

[[record]]
primary_sequence = "NVKEITEKLKISPESVF [SMC3]"
recorded_measurement = 2.04

[[record]]
primary_sequence = "GAHLLEFQPSGNVTELY [PRE5]"
recorded_measurement = 3.02

[[record]]
primary_sequence = "KSNTIPVTSIPSTNKKL [GAL11]"
recorded_measurement = 2.96

[[record]]
primary_sequence = "FMDETAVALAASDLVLI [SNU114]"
recorded_measurement = 2.21

[[record]]
primary_sequence = "TGRLFQVEYALEAIKQG [PRE5]"
recorded_measurement = 2.26

[[record]]
primary_sequence = "GANTSAAQTLLQMDYKD [PRE9]"
recorded_measurement = 2.96

[[record]]
primary_sequence = "PKNLLKKFIEISDVKIQ [PRP8]"
recorded_measurement = 2.26

[[record]]
primary_sequence = "LVVIRFGRKNDRQCMIM [DIB1]"
recorded_measurement = 2.79

[[record]]
primary_sequence = "KYNVNISALTQTEIKDI [PRP8]"
recorded_measurement = 2.75

[[record]]
primary_sequence = "ENDTTLVKTKELIKNYI [FAS1]"
recorded_measurement = 2.68

[[record]]
primary_sequence = "KNWQNVGSLVVKSSMGP [RPL1A]"
recorded_measurement = 2.29

[[record]]
primary_sequence = "HRDAYSGGSVNLYHVTE [PRE2]"
recorded_measurement = 3.03

[[record]]
primary_sequence = "NNNDNDANRNANNIVNI [GRR1]"
recorded_measurement = 3.04

[[record]]
primary_sequence = "PYLLPYILEAEAAAKEK [QCR7]"
recorded_measurement = 1.19

[[record]]
primary_sequence = "SAINQYNRRQDKKNKRL [SNF2]"
recorded_measurement = 3.25

[[record]]
primary_sequence = "IQVFEKPFLKKTQEYYT [CDC53]"
recorded_measurement = 2.57

[[record]]
primary_sequence = "GSCTRQLAGKSGEDTNV [YOR098C/NUP1]"
recorded_measurement = 3.17

[[record]]
primary_sequence = "QTDAIKSDEAKWKPVLS [RPN5]"
recorded_measurement = 3.2

[[record]]
primary_sequence = "TSRVTGILLLDSLIQLA [YJL039C/NUP192]"
recorded_measurement = 1.95

[[record]]
primary_sequence = "DCQFWETWLGSQCRLHE [PRE2]"
recorded_measurement = 2.6

